Reference for the values: patent US20240409536A1

Kindly supply the reported pIC50 values for the records listed here.
tested on: MYB mRNA; assay: Splicing RT-qPCR assay, MYB canonical (CJ) and alternative (AJ) junction mRNA; assay type: cell-based; conditions: Homo sapiens, decrease in canonical junction mRNA, A673 or K562 cells, 24 hours
pIC50: −log10 of the molar value.

Would you mind telling me what pIC50 value was observed for C[C@@H]1CN(c2ccc(C(=O)Nc3cc(F)c4cnccc4c3)c3nccnc23)C[C@H](C)N1 [Compound 343] ? 5.00 to 6.00

What pIC50 value was documented for this compound, Cc1cn2cc(NC(=O)c3ccc(N4CCC5(CCN5)CC4)c4nccnc34)cc(F)c2n1 [Compound 189] ? > 7.00

Dear colleague, I am looking for the recorded pIC50 of the following compound: Cc1cn2cc(NC(=O)c3ccc(C4CCN(C)CC4)c4ccnnc34)cc(F)c2n1 [Compound 140] 6.00 to 7.00

Fill blank: measured pIC50 of the compound Cc1cn2cc(NC(=O)c3ccc(N4CC[C@@H](N)C4)c4nccnc34)cc(F)c2n1 [Compound 315] is ____. 6.00 to 7.00

Item CNC1CCN(c2ccc(C(=O)Nc3cc(F)c4nc(C)cn4c3)c3ncc(OC)nc23)C1 (stereo in doubt) [Compound 227, 2,2,2-trifluoroacetate] has what recorded pIC50? 5.00 to 6.00

Which pIC50 is listed for Cc1cn2cc(NC(=O)c3ccc(N4CCN(CCF)C5(CC5)C4)c4nccnc34)cc(F)c2n1 [Compound 370] ? 5.00 to 6.00

// query pIC50 value for entry C[C@@H]1CN(c2ccc(C(=O)Nc3cc(F)c4ncccc4c3)c3nccnc23)C[C@H](C)N1 [Compound 344] 5.00 to 6.00
